Target: T1, B7-H3 on MDA-MB-468 cells (human, UniProt Q5ZPR3)
T1 construct: endogenous, on the cell surface
T1 sequence (cell surface antigen, looked up): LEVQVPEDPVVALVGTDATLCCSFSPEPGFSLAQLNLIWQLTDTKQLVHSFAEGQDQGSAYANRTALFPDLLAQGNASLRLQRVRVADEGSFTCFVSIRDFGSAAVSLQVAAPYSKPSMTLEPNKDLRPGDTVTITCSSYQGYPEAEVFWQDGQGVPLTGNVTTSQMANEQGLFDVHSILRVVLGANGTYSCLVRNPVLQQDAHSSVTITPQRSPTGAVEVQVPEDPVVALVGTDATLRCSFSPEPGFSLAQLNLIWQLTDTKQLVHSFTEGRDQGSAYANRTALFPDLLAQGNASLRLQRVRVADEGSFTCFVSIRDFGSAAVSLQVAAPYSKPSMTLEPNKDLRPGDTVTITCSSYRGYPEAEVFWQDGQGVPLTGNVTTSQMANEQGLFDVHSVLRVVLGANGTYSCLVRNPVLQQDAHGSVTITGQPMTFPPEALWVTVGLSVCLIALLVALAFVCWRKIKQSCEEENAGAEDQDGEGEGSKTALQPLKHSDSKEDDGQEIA
Assay: flow cytometry on MDA-MB-468 cells; blank V2-R 0.9%
ENDPOINT_LABEL: % of cells in gate V1-R at 3.7 nM (%)
State just the number; it will be interpreted in %.

Determine its reported % of cells in gate V1-R at 3.7 nM: Antibody V1 (antibody, human IgG1, kappa, V domains shown, Humanized from chimeric antibody M1; also called humanized antibody V1) VH: EVQLVQSGAEVKKSGESLKISCKASGYTFTDYDINWVRQMPGKGLEWMGWIFPGDDTTKYNEKFKGQVTISADKSTNTAYLQWSSLKASDTAMYYCARSPSFDYWGQGTLVTVSS VL: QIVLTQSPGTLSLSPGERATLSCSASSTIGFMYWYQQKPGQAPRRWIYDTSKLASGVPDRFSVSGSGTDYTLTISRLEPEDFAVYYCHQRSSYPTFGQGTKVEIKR 92.7

Determine its reported % of cells in gate V1-R at 3.7 nM: Antibody M1 (antibody, human IgG1, kappa, V domains shown, Chimeric antibody: murine variable regions on human IgG1 and light chain constant regions; expressed in HEK293F cells; also called chimeric antibody M1) VH: QVQLQQSGPELVKPGASVRISCKASGYTFTDYDINWVQQRPGQGLEWIGWIFPGDDTTKYNEKFKGRATLTADKSSNTAYMQLNGLTSENSAVYFCARSPSFDYWGQGTLVTVSS VL: QIVLTQSPAIMSASPGERVTMTCSASSTIGFMYWYQQKPGTSPKRWIYDTSKLASGVPARFSVSGSGTSYSLTISSMEAEDAATYYCHQRSSYPTFGGGTKLEIKR 98.7

New cases:
Determine its reported % of cells in gate V1-R at 3.7 nM: control Antibody M30-H1-L4 (antibody, human IgG1, kappa, V domains shown, Control anti-B7-H3 antibody) VH: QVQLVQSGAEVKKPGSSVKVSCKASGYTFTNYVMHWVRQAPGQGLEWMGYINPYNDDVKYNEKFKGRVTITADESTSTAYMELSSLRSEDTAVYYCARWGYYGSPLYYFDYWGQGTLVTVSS VL: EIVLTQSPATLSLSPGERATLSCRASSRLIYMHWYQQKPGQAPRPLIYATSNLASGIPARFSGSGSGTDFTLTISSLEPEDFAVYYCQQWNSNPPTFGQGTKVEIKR 38.4
